Assay: Half-life in rats
Format: ADME, organism-based
Conditions: rat, in vivo
Kindly state half-life for each of the entries shown.
Note: unit h is implicit; provide only the numeric part.

Any idea what half-life was measured for Cc1ccc(C2(c3ccc(C)cc3)CC(=O)N(CCCN3CCC(C#N)(c4ccccc4Cl)CC3)C2=O)cc1 ?
0.66

Entry Cc1ccc(C2(c3ccc(C)cc3)CC(=O)N(CCCN3CCC(C#N)(c4ccccc4C)CC3)C2=O)cc1 please
2.5

And Cc1ccc(C(O)(C(=O)NCCCN2CCC(C#N)(c3ccccc3C)CC2)c2ccc(C)cc2)cc1 ?
1.3

---

Task for the reader: assign each of the following compounds its reported bioavailability.
Assay: Bioavailability in dog (Beagle) (male) (dose 3 mg/kg i.v. and 10 mg/kg p.o.) measured from 1 to 24 hr
Format: ADME, organism-based, Canis lupus familiaris
Conditions: in vivo, po
Answer in %, number only, no unit symbol.

Recorded bioavailability of Cc1ccc(C2(c3ccc(C)cc3)CC(=O)N(CCCN3CCC(C#N)(c4ccccc4Cl)CC3)C2=O)cc1 , please.
11

Lookup Cc1ccc(C2(c3ccc(C)cc3)CC(=O)N(CCCN3CCC(C#N)(c4ccccc4C)CC3)C2=O)cc1
8

Reference for the values: ChEMBL document CHEMBL1134805
